Biological target: serotonin 5-HT1A receptor (Rattus norvegicus, UniProt P19327)
Construct: following the procedure of Hall et al., J. Neurochem; 44, 1685 (1985); from tissue
Sequence (P19327 1-422): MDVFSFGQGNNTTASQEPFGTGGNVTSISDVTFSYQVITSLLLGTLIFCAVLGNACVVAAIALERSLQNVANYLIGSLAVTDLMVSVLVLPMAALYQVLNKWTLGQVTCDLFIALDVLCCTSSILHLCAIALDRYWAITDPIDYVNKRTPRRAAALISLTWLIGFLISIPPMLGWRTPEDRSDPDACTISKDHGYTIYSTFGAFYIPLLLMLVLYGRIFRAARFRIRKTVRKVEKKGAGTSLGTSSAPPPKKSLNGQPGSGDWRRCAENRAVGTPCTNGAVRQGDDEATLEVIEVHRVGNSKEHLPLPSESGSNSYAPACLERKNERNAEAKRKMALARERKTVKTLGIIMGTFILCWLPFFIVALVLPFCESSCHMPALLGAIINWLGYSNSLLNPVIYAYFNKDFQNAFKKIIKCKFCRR
Test: 5-HT1A Binding (displacement of [3H] 8-OHDPAT)
Conditions: 0.1 μM
PROPERTY: inhibition at 0.1 µM (%)

O=C1C2CC(C(=O)N1CC1CCN(CC3COc4ccccc4O3)CC1)C1C2C2C3CC4C2C4C31 (centres unmarked) : 96
O=C1c2ccccc2S(=O)(=O)N1C1CCN(CC2COc3ccccc3O2)CC1 (centres unmarked) : 45
O=C1C2C3C=CC(C4C=CC43)C2C(=O)N1C1CCN(CC2COc3ccccc3O2)CC1 (centres unmarked) : 4

(P) O=C(NCC1CCN(CC2COc3ccccc3O2)CC1)C12CC3CC(CC(C3)C1)C2 (centres unmarked)
(Q) O=C(NC1CCN(CC2COc3ccccc3O2)CC1)C12CC3CC(CC(C3)C1)C2 (centres unmarked)
q: I would appreciate it if you could say which entry, P or Q , has the lower inhibition at 0.1 µM value. Reply with the label of the item you choose.
a: Q
